# Tested on: α2-subtype of the human α-adrenergic receptor
# assay_overview: SPA assay, affinity for the α2-subtype of the human α-adrenergic receptor
# Format: binding
# measurement_parameters: at a concentration of 10 μM
# α2-affinity, 10 μM annotations
State the result as a value with its unit after it.

// worked examples, α2-affinity, 10 μM included
>>> df
                                   compound  reported_measurement
0  Cc1nc2c(C)cccn2c1NC(C)(C)CC(C)(C)C [Example 22]                   69%
1  Cc1ccn2c(NC(C)(C)CC(C)(C)C)c(C)nc2c1 [Example 21]                  109%
2  Cc1nc2c(OCc3ccccc3)cccn2c1NC(C)(C)CC(C)(C)C [Example 29]                  100%
3  CC(=O)N(c1c(-c2ccco2)nc2c(Cl)cc(Cl)cn12)C1CCCCC1 [Example 33]                   73%

Requested read-out: α2-affinity, 10 μM. Entry: CC(=O)N(c1c(-c2ccco2)nc2ccc(C(F)(F)F)cn12)C1CCCCC1 [Example 34]
72%

Requested read-out: α2-affinity, 10 μM. Entry: [C-]#[N+]CCCCCCNc1c(C2CCCCC2)nc2cccc(C)n12 [Example 16]
67%

Requested read-out: α2-affinity, 10 μM. Entry: [C-]#[N+]CCCCCCNc1c(-c2ccc(OC)c(OC)c2)nc2ccc(C)cn12 [Example 20]
85%

Requested read-out: α2-affinity, 10 μM. Entry: CCCCNc1c(C2CCCCC2)nc2cccc(CCC)n12 [Example 32]
61%

Requested read-out: α2-affinity, 10 μM. Entry: COC(=O)CNc1c(C)nc2c(OCc3ccccc3)cccn12 [Example 31]
61%
